molecular target: UniProt:Q96EB6; assay: Fluorescence polarization or mass spectrometry based assay to identify modulators of SIRT1 activity; details: activation of SIRT1 (Table 3); read-out: ED50 (the source's name);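 note: deacetylation of a fluorophore-tagged p53-derived acetyl peptide by SIRT1, detected as fluorescence polarization after trypsin cleavage and streptavidin binding, compounds tested at 11 doses from 0.7 to 100 µM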
Sequence (Q96EB6 whole entry): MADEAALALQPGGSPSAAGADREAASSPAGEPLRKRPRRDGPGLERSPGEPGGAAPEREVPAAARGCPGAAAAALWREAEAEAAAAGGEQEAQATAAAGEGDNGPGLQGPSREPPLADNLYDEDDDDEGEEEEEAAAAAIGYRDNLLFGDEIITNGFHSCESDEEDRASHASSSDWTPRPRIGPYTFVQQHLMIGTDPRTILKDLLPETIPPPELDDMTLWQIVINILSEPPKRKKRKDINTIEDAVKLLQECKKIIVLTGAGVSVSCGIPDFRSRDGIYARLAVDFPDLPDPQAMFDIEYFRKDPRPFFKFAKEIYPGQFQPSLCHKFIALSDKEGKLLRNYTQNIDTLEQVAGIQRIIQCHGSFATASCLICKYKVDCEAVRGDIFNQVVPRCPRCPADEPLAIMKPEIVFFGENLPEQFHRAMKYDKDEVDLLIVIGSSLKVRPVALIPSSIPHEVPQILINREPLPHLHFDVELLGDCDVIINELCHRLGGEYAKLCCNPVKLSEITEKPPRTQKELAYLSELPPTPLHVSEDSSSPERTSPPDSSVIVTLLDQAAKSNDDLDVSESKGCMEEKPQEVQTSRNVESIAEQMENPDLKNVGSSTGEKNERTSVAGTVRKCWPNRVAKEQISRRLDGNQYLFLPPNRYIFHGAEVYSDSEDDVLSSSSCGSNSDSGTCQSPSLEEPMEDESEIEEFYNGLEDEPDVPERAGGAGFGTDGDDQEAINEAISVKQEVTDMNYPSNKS
pEC50: −log10 of the molar value.
attribute measured: pEC50

Before answering, review these 3 worked examples.
N#Cc1cc(Oc2nc3ccccc3s2)c(N2CCOCC2)cc1C#N [Compound 13]    3.82 to 4.00
COc1cccc(-c2nc3c(C(=O)NC(C)C(=O)NCCC#N)cccn3c2NC2CCCCC2)c1 (stereo not shown) [Compound 46]    4.00 to 4.29
COc1ccc(-c2nc3cc(C(=O)NCc4cccc(CN)c4)ccn3c2NC2CCCCC2)cc1[N+](=O)[O-] [Compound 40]    3.82 to 4.00

molecule Cc1csc(NC(=O)CSCC(=O)O)c1-c1nc2ccccc2s1 [Compound 5] , pEC50 observed: > 4.30

----------
biological target: human SIRT3 (Homo sapiens); assay: Fluorescence polarization assay to identify modulators of SIRT3 activity; type: biochemical; conditions: activation of SIRT3 (Table 5); read-out: ED50 (the source's name)
Sequence (Q9NTG7 102-399): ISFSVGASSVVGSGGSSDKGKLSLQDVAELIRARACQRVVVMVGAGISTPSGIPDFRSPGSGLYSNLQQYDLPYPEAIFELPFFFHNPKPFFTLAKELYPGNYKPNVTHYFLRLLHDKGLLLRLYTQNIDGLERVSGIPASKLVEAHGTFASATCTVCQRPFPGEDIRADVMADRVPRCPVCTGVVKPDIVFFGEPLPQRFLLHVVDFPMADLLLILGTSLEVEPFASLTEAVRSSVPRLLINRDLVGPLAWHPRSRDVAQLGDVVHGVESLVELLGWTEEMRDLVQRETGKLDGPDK
Each record here notes measured EC50.

Before answering, review these 4 worked examples.
COc1ccc(-c2nc3c(C(=O)NC(CC(=O)O)C4CCCCC4)cccn3c2NC(C)(C)C)cc1[N+](=O)[O-] (centres unmarked)    > 150 µM
CC(C)(C)Nc1c(-c2ccc(F)cc2)nc2c(C(=O)NC(CC(=O)O)C3CCCCC3)cccn12 (centres unmarked)    101 to 150 µM
O=C(O)CC(NC(=O)c1cccn2c(NCc3ccccc3)c(-c3ccc(F)cc3)nc12)C1CCCCC1 (centres unmarked)    51 to 100 µM
Cc1cccc(C)c1Nc1c(-c2ccc(C#N)cc2)nc2c(C(=O)NC(CC(=O)O)c3cccc([N+](=O)[O-])c3)cccn12 (centres unmarked)    > 150 µM

Shift focus to the following entry.
compound Nc1nc2ccc(-c3nc4ccccc4[nH]3)cc2s1 , EC50 observed: 101 to 150 µM
